assay: purified protein yield per well (BCA); higher = higher soluble expression
recorded_endpoint: purified protein yield per well

# sequence, purified protein yield per well
measured = [
    ("FGAVAISPGFTAAWSSLSWLGPRLASHGFVVIGIETNSRLDQPASRGDQLLAALDWAVNQSPAASRIDRNRLAVAGHSMGGGGTLEAAKDRPSLKAAIPIAPWNLDKTWPEIRTPTLILGGENDLIAPVASHAEPFYNSIPASAEKAYLELDNESHFFPQFSNTIMAKYMISWLKRFVDNDTRYDQFLCP [TEP090]", "< 25 µg"),
    ("ADNPYERGPAPTTASIEAVRGPYAVSEYRVSSLAATGFGGGTIHYPTTTADGTFGAIAVSPGYTGTESTIAWLGPRLASQGFVVFTIETLTLFDQPDSRGRQLLAALDHLTRVSPLRGRVDSSRLGVMGHSMGGGGSLEAAKSRPSLQAAVPLTPWNLDKTWPELRTPTLVVGADGDSIAPVRSHAEPFYESLPSSLDRAYLELNGASHFAPNSPDTTIAKYSIAWLKRFIDNDTRYEQFLCPLPRPSLTIEEYRGNCPHTS [TEP138]", "28 µg"),
    ("QDCDSLKISSISNPGPYKVKKILEKDGLRDGPDYYGATLYYPEDATPPFASIVIVPGFWSYEPSIQAWGPFLASHGIVTLTIGTNILSDFPEQRALALLDAAETIKQEIIRESSPLYGSLDPTKIAVSGWSMGGGGAQMAAVLDTTLKAVMALAPWQNTQLTETAFNHPVPTLIFSGEKDPTAPASMHATVHYNYTPQTTSKLLFEIKNGNHSVANTPEGGNGDVGRIAIAWLKNLLVGQPCYCPLLLDPPVSASKYVTNLQCSSIASVSRPDGKDDFSP [TEP159]", "< 25 µg"),
    ("ATPARPASVAAAPAAVQRAADNPYQRGPAPTEASITAEKGPFAVETIPVPAGSGTGFNKGTVYAPTDTSEGTFGAIVVSPGFVSPEAWISWYGPRLASQGFVVMTLETNSLVDVPASRGDQLLAALDWLTGKSSVKNRIDASRTAVMGHSMGGGGTLEAANKRPSLKADIPLAPWDTNYNFPNIKTPTLIMGADNDLIAPASSMAESYYNNITTAPEKAYLLLKNAGHMTFVSPNTTIAKYSIAWMKRFVDNDTRYDQFLCPAPKPDANIAKYLDTCPNG [DP016]", "83 µg"),
]

# return purified protein yield per well for each item in the list
1. NPYERGPAPTTASLEASRGPFATSSFTVSRPSGYGAGTVYYPTNAGGTVGAIAIVPGFLARQSSINWWGPRLASHGFVVITIDTNSTFDQPTSRSRQQLAALDQVAALARTSSSPIYNRVDTTRMGVMGWSMGGGGTLISAQNRPSLKAAAPQAPWNNSTNFSSVTVPTLILACESDSTAPVNQHASPFYNSMSRNSKQYLEINNGSHSCANSGNSNQPLIGKRGVAWMKRFMDNDTRYTSFACANPNSTRVSEFRTANCS [ESM076]
2. ADNPYERGPAPTNSSIEATRGPFAVSDTRVSSLVSGFGGGTIYYPTSTSSGTFGAVVISPGFTGTQSSIDWLGPRIASQGFVVFTIDTITIYDQPDSRASQLLAALDYLTQRSDVRSRIDASRLGVMGHSMGGGGTLRAAAQRPSLQAAIPLTGWHTTKNWSSVSVPTLVIGAESDSVAPVATHSEPFYTSLPSTLDKAYLELNNASHFAPNLPDTTIAKYSISWLKRFIDNDTRYEQFLCPGPGRSTQVEEYRNTCPNS [TEP025]
3. QVGPTPTSSSLNVTAGPFAVSSSRVFSPRGFGGGTIYYPTTSGQYGVVAMSPGFTATESSIAWLGRRLATHGLVVITINTNSTYDQPASRATQLMAALNHVLNSASSTVRSRVDSSKLAVAGHSMGGGGALIAAQNNPTLKAALPLTPWNTSTRFDGVRVPTLIVGADGDSVARVASHARPFYASLPATTFKAYAELNGASHFAPNSTNTPIGRYGVAWMKRFVDADTRYSPFLCGAAHDAYATSAVFDRYNDNCPY [ESM085]
4. QNCGNISLNNITNPGPYGYLTMDQNDGLRDGPDYGNATVYYPTNTTTPFACVSIVPGFFSTQSSVAAWGPFLASHGIVSIIFDTNSLFDSPADRADGLLDALETMRQENTRTASPLFGLIDESRFGVMGWSMGGGGAQLAAVIDPSLKAVIALCPWLNSPNSNTLNHTVPVLILSGELDPTAPPDLHADVHFDLTPNTTDKLLFEVDGGDHSIANDPANAQGDIGKYGLAWLRNYLLDDPCHCPLVLLPSTETSNTMTNVVCPPTLACPIQLTLFNNLIADGTYKAIQTVTSASMVPLSGNVSLKAEQSIFLDCGFSVDSGAAFEAVIQICN [TEP048]
5. VQIGPNPTKASLEASSGPFTVGKFTISRPSGYAAGTVYYPTNAGAKVGVISIVPGFVSYQSSVAWWGPRLASHGFVVVTIDTNTTVDQPDSRSRQQLAALDQVVALGNNSSSPLYNKIDGTRTGVMGWSMGGGGSLISAKNRPSIKAAAPQAPWASLTSFSSLTVPTLIFSCQSDIVAPVATHANSFYNEMSRNPKQLLEKTLGDHFCMNSANPTVGLKGVAWMKRFIDGDTRYTTFACSNPNAFGFSDFRTARCS [ESM111]
6. FSFTPPPEPNPDPDPTPPCEVDCDFTRGPDPSSSYLEAASGPYSVNTINVSSSVSGFGGGTVYYPTGTSGLMGAISIAPGFFAAESSIGWWGPRLASHGFVVITIATNSIFDGTDSRATQLDRALDYVINQSNSGSSAISGMVDSNRVGAMGWSMGGGGSLILGSGTRLSAVIPLAPWESGSNNFDQMTAPTLIIACENDGTAPVASHASPFYNTIPGTTDKAFLEINGGGHSCANGGGVNG [ESM098]

Response line:
< 25 µg
< 25 µg
< 25 µg
< 25 µg
< 25 µg
< 25 µg

Entry under test: QDNPYERGPDPTESLIEASRGPFSVSQTSVSSLVSGFGGGTIYYPTSTSEGTFGAVAISPGFTATESSIAWMGPRLASHGFVVITIDTNTIYDQPSSRGDQLLAALDYMTEDNLTVRGRIDSSRLAVAGHSMGGGGSLEAASSRPALQAAVPLAPWNTDKSWSELRTPTLIIGGESDSIAPVATHSIPFYNSIPASAEKAYLELDNASHFFPQTPNTTQAKYMLSWLKRFVDNDTRYEQFLCPAPDDRDISDYRDTCPHA [TEP150] . Its purified protein yield per well was < 25 µg

Origin of the recorded values: the supplement of paper PMC12455559
